biological target: human ether-à-go-go-related gene (hERG) potassium channel (human, UniProt Q12809); test: primary screen, population patch clamp on CHO cells stably expressing hERG; higher = less effect of the substance;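 further: peak tail current of the secondary pulse compared with the same well before compound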
Sequence (Q12809 whole entry, looked up): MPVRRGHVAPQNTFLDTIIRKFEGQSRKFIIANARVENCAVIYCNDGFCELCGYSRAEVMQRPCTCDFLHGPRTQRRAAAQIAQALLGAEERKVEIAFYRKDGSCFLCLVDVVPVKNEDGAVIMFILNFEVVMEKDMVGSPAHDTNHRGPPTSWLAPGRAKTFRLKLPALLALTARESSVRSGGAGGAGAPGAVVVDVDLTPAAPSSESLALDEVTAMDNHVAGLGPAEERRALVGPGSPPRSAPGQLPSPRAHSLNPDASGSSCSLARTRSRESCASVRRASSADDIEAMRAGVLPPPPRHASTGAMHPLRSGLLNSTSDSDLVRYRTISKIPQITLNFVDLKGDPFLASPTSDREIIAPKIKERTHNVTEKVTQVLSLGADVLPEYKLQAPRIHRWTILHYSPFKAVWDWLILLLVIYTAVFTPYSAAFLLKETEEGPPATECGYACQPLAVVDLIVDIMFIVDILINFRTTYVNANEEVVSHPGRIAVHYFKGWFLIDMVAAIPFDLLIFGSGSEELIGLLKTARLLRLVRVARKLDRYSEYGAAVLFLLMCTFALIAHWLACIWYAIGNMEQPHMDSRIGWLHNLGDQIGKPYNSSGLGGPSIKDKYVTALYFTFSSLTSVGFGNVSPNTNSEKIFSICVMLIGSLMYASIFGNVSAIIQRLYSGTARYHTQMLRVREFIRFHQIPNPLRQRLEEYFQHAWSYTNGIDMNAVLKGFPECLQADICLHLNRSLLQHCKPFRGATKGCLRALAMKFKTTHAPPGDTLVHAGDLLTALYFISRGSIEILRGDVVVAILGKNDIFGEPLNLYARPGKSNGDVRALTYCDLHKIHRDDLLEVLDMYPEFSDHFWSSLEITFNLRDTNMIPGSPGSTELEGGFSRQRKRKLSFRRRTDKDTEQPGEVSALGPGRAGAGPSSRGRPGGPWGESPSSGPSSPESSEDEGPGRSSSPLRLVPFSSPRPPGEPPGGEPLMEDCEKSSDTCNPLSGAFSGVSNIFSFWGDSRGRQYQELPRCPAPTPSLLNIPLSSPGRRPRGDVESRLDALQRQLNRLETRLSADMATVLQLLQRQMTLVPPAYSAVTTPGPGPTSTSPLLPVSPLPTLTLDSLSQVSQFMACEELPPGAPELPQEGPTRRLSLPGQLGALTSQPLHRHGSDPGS
About 14,000 (4.5%) of roughly 310,000 compounds showed an effect of 50% or more. Effects have a minus sign here. For the sample, strong results were picked, then their nearest neighbours and some compounds at random.
Lab note: compare hERG current change (%, negative = inhibition) at 10uM against -20%. Equal or greater, write 1. Smaller, write 0.

[
  {
    "compound": "C=CCc1ccc(OCC(O)CN2CCN(c3ccccc3OC)CC2)c(OC)c1.Cl (stereo not drawn)",
    "qualitative_label": 1
  },
  {
    "compound": "C=CCc1ccc(OCC(O)CN2CCN(c3ccccc3)CC2)c(OC)c1.Cl (stereo not drawn)",
    "qualitative_label": 0
  },
  {
    "compound": "NS(=O)(=O)c1ccc(NCc2cc(Cl)ccc2OCc2ccccc2F)cc1",
    "qualitative_label": 1
  },
  {
    "compound": "COc1cc(COCC(O)CN2CCc3ccccc3C2)cc(OC)c1OC.Cl (stereo not drawn)",
    "qualitative_label": 0
  },
  {
    "compound": "C=CCc1ccc(OCC(O)COc2ccc(CC=C)cc2OC)c(OC)c1",
    "qualitative_label": 0
  },
  {
    "compound": "Cl.NS(=O)(=O)c1ccc(CCNCc2cc(Br)ccc2OCc2ccccc2F)cc1",
    "qualitative_label": 0
  },
  {
    "compound": "CCc1cc(=O)oc2c(C)c(OCC(=O)NCCCN3CCOCC3)ccc12",
    "qualitative_label": 0
  },
  {
    "compound": "Cl.NS(=O)(=O)c1ccc(CCNCc2cc(Br)ccc2OCc2ccccc2)cc1",
    "qualitative_label": 0
  },
  {
    "compound": "O=C(CSc1nnc(-c2ccccc2)c2ccccc12)NCCN1C(=O)CSC1=O",
    "qualitative_label": 0
  }
]

====

biological target: human ether-à-go-go-related gene (hERG) potassium channel (human); assay: primary screen, population patch clamp on CHO cells stably expressing hERG; higher = less effect of the substance;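 further: peak tail current of the secondary pulse compared with the same well before compound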
In all, about 310,000 compounds went through this assay and about 14,000 (4.5%) showed an effect of 50% or more. The effect is printed as a negative number. Only a selection was taken, and strong results are over-represented in it overall.
property_measured: hERG current change (%, negative = inhibition) at 10uM (%)

[
  {
    "compound": "Cc1ccc(N(CC2CO2)S(=O)(=O)c2ccccc2[N+](=O)[O-])cc1 (stereo not shown)",
    "quantity_unit": "%",
    "quantitative_result": 1.23
  },
  {
    "compound": "COc1cccc(C2C(C(=O)c3sc(C)nc3C)=C(O)C(=O)N2CCN2CCOCC2)c1 (stereo not shown)",
    "quantity_unit": "%",
    "quantitative_result": 10.8
  },
  {
    "compound": "Cc1cc(OCC(=O)N2CCN(c3ccccn3)CC2)cc(C)c1Br",
    "quantity_unit": "%",
    "quantitative_result": -32.3
  },
  {
    "compound": "O=C(COc1ccc(F)c(Cl)c1)N1CCN(c2ccccn2)CC1",
    "quantity_unit": "%",
    "quantitative_result": -55.3
  },
  {
    "compound": "O=C(N/N=C/c1cn(-c2ccccc2)nc1-c1ccc(F)cc1)c1ccc(Br)o1",
    "quantity_unit": "%",
    "quantitative_result": 27.7
  },
  {
    "compound": "CCC1(C)Cc2nc3[nH]c(=S)n(-c4ccccc4C)c(=O)c3cc2CO1 (stereo not shown)",
    "quantity_unit": "%",
    "quantitative_result": 4.44
  },
  {
    "compound": "CN(C)S(=O)(=O)N1CCN(C(=O)N2CCCCC2)CC1",
    "quantity_unit": "%",
    "quantitative_result": 3.64
  },
  {
    "compound": "O=[N+]([O-])c1ccccc1CNCCCCO",
    "quantity_unit": "%",
    "quantitative_result": -3.05
  },
  {
    "compound": "Cc1ccc(-c2ccc(S(=O)(=O)N3CC(C)OC(C)C3)cc2)cc1 (stereo not shown)",
    "quantity_unit": "%",
    "quantitative_result": 18.7
  },
  {
    "compound": "CC(C)(C)c1ccc(OCC(=O)N2CCN(c3ccccn3)CC2)cc1",
    "quantity_unit": "%",
    "quantitative_result": -51.7
  }
]
